Provenance of the data: BindingDB's records for doi:10.7270/Q2TX3CTT

biological target: Glycogen synthase kinase-3 beta (Homo sapiens, UniProt P49841); assay: concentration-response blocking of human GSK3B – biochemical, luminescence, cell-free homogeneous, retest, dose response (AID 434954)
Sequence (P49841 whole entry): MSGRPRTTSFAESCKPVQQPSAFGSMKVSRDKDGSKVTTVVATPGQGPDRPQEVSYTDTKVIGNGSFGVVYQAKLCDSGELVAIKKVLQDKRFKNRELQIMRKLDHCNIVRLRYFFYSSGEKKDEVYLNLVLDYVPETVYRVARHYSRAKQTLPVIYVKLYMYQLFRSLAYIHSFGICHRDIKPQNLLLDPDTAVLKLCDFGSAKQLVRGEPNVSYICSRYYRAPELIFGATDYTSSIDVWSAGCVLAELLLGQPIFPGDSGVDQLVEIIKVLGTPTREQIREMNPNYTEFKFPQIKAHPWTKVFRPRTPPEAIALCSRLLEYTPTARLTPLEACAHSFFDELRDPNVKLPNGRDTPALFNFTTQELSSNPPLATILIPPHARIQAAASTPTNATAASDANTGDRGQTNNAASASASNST
Assay readout: EC50

>>> measured_value("O=C(O)COCC(=O)N1CCN(C(c2ccccc2)c2ccccc2)CC1")
"> 300 µM"
>>> measured_value("Cc1ccc(C(=O)/C=C/c2ccc3ncccc3c2)cc1 [SMR000516943]")
"> 300 µM"
>>> measured_value("CC(C)OCCCN1CN(S(=O)(=O)c2cccc(Cl)c2)c2nc3ccccc3nc21")
"> 300 µM"
>>> measured_value("COc1ccc(Nc2nc(NCC3CCCO3)nc(N)c2[N+](=O)[O-])cc1 (stereo unspecified)")
"> 300 µM"
>>> measured_value("CCOC(=O)c1nnn(-c2nonc2N)c1-c1ccc(OCC)cc1")
"20 µM"

Documented EC50 of O=C(Nc1ccccc1)ON=C1c2ccccc2-c2ccccc21 : > 300 µM

Documented EC50 of O=NCc1ccc(Sc2ccccc2)c([N+](=O)[O-])c1 : 39.3 µM

Documented EC50 of O=C(CCC1CCN(C(=O)c2cc(C(F)(F)F)ccc2Cl)CC1)NC1CC1 : > 300 µM

Documented EC50 of Cc1ccc(S(=O)(=O)N(C)CC(=O)N2CCCc3ccccc32)cc1 [SMR000076264] : > 300 µM

Documented EC50 of CCC(O)CNc1nc(SC)nc2sc3c(c12)CCN(C)C3 (stereo unspecified) : 1.75 µM

Documented EC50 of Cn1c(SCc2cccc(Br)c2)nnc1-c1ccncc1 : > 300 µM

Documented EC50 of CC1CCN(c2oc(-c3ccccc3Cl)nc2C#N)CC1 [SMR000041709] : > 300 µM

Documented EC50 of Cc1ccc(OCC(=O)NN=C2SCC(=O)N2Cc2ccccc2)cc1 : > 300 µM

Documented EC50 of OCCNc1nc(-c2cccnc2)nc2ccccc12 [MLS000107346] : > 300 µM

Documented EC50 of CC1(C)CC(=O)C2C(=Nc3ccccc3NC2c2ccc(F)cc2)C1 (stereo unspecified) [SMR000515995] : > 300 µM

---

target: Glycogen synthase kinase-3 beta (Homo sapiens, UniProt P49841); experiment: concentration-response blocking of human GSK3B – biochemical, luminescence, cell-free homogeneous, retest, dose response (AID 434954)
Attribute: EC50
Give the number; µM is assumed, so skip it.

Documented EC50 of CCOC(=O)c1cnc2ccc(Cl)cc2c1N1CCN(C)CC1 : 14.8

---

Attribute: pEC50
biological target: Glycogen synthase kinase-3 beta (Homo sapiens, UniProt P49841); assay: concentration-response blocking of human GSK3B – biochemical, luminescence, cell-free homogeneous, retest, dose response (AID 434954)
A value of pEC50 is the negative decimal logarithm of a concentration given in moles per litre.

The examples below pair each entry with its known result.
>>> measured_value("Nc1nc(NCCCN2CCOCC2)nc(Nc2ccc(Cl)cc2)c1[N+](=O)[O-]")
5.83
>>> measured_value("COc1cc(C=NNC(=O)c2sc(N)c(C#N)c2C)ccc1O [MLS000540774]")
6.36
>>> measured_value("O=NCc1cn(CCC(=O)O)nc1-c1cccc([N+](=O)[O-])c1 [SMR000371064]")
5.13

// below: pEC50 requested for another molecule
Documented pEC50 of O=C1Nc2ccccc2Nc2ccc([N+](=O)[O-])cc21 [SMR000550741] : 4.60

---

molecular target: Glycogen synthase kinase-3 beta (Homo sapiens); experiment: concentration-response blocking of human GSK3B – biochemical, luminescence, cell-free homogeneous, retest, dose response (AID 434954)
Attribute: EC50

The examples below pair each entry with its known result.
>>> measured_value("CC1=C(C(=O)OCC2CCCO2)C(c2ccsc2)C2C(=O)CC(C)(C)CC2=N1 (stereo not given)")
"> 300 µM"
>>> measured_value("Cc1ccc(N2CC(C(=O)Nc3c4c(nn3C(C)(C)C)CS(=O)(=O)C4)CC2=O)cc1 (stereo not given)")
"> 300 µM"
>>> measured_value("COc1cccc2cc(C(C)=O)c(=O)oc12")
"> 300 µM"
>>> measured_value("Cc1coc2cc3oc(=O)c(CCC(=O)NCCCN4CCCC4=O)c(C)c3cc12")
"> 300 µM"

// below: EC50 requested for another molecule
Documented EC50 of c1ccc(Nc2ncnc3[nH]ncc23)cc1 : 45.5 µM

---

Attribute: EC50
biological target: Glycogen synthase kinase-3 beta (Homo sapiens); test: concentration-response blocking of human GSK3B – biochemical, luminescence, cell-free homogeneous, retest, dose response (AID 434954)
Give the number; µM is assumed, so skip it.

>>> measured_value("Cc1c(C(=O)OCCOc2ccccc2)[nH]c2c1C(=O)CCC2 [MLS000090901]")
10.9
>>> measured_value("COc1ccc2occ(C(=O)c3ccccc3)c2c1")
22.9

// below: EC50 requested for another molecule
Documented EC50 of COc1ccc2occ(C(=O)c3ccc(N=C(C)N(C)C)cc3)c2c1 [SMR000104711] : 21.6

---

target: UniProt:P49841; experiment: concentration-response blocking of human GSK3B – biochemical, luminescence, cell-free homogeneous, retest, dose response (AID 434954)
Attribute: EC50

>>> measured_value("COc1ccc(-c2csc(N3CCOCC3)n2)cc1OC")
"> 300 µM"
>>> measured_value("Cc1[nH]nc2c1C(c1cccs1)C1C(=O)CC(C)(C)CC1=N2 (stereo unspecified)")
"1.36 µM"
>>> measured_value("COc1ccccc1N1CCN(/N=C/c2ccc(Cl)c([N+](=O)[O-])c2)CC1")
"> 300 µM"
>>> measured_value("Cc1cc2c(N3CCCCC3C)ncnc2s1 (stereo unspecified)")
"> 300 µM"
>>> measured_value("COC(=O)c1c(N)c(C#N)c2n1CCCCC2")
"> 300 µM"

Documented EC50 of O=C1/C(=C/C=C/c2ccccc2)Oc2c1ccc(O)c2CN1CCN(CCO)CC1 : > 300 µM

Documented EC50 of CCn1c(-c2nn(C)cc2Cl)n[nH]c1=S : > 300 µM

Documented EC50 of Cc1[nH]nc2c1C(c1ccc(F)cc1)C1C(=O)CC(C)(C)CC1=N2 (stereo unspecified) : 3.93 µM

Documented EC50 of c1ccc(CCCNCC2COc3ccccc3O2)cc1 (stereo unspecified) : > 300 µM

Documented EC50 of Cn1c(=S)n(CCC(=O)O)c2ccccc21 : > 300 µM

Documented EC50 of C=CCN=C(NC#N)SCC(=O)NC(C)(C)C : > 300 µM

---

target: Glycogen synthase kinase-3 beta (Homo sapiens); assay: concentration-response blocking of human GSK3B – biochemical, luminescence, cell-free homogeneous, retest, dose response (AID 434954)
pEC50: −log10 of the molar value.
Attribute: pEC50

The examples below pair each entry with its known result.
>>> measured_value("O=C(CS(=O)(=O)c1ccccc1)c1cc2ccccc2oc1=O")
"< 3.52"
>>> measured_value("CC(C)c1ccc(NC2=CC(=O)CC(C)(C)C2)cc1 [SMR000558851]")
"< 3.52"
>>> measured_value("CC1(C)CC(=O)C=C(Nc2cccc(C(F)(F)F)c2)C1")
"< 3.52"
>>> measured_value("Cc1ccc(-c2nn(-c3ccccc3)cc2CNCc2ccccc2)cc1 [MLS000672046]")
"< 3.52"
>>> measured_value("COc1cc(CN=O)ccc1OCc1ccccc1Cl")
"< 3.52"

Documented pEC50 of COc1ccc(CN(CC(=O)NCc2ccccc2)C(=O)CCC(=O)Nc2cc(C)ccn2)cc1 : 4.67

---

Attribute: EC50
target: Glycogen synthase kinase-3 beta (Homo sapiens, UniProt P49841); assay: concentration-response blocking of human GSK3B – biochemical, luminescence, cell-free homogeneous, retest, dose response (AID 434954)

The examples below pair each entry with its known result.
>>> measured_value("CC(C)N1CCc2c(sc(NC(=O)CN3C(=O)c4ccccc4C3=O)c2C(N)=O)C1")
"> 300 µM"
>>> measured_value("COc1ccc(-c2nn(-c3ccccc3)cc2C=Nn2cnnc2)cc1OC [SMR000066046]")
"> 300 µM"
>>> measured_value("COCc1c(C(=O)Nc2ccc(Cl)cc2F)oc2ccccc12")
"> 300 µM"
>>> measured_value("Cc1csc(SCC(=O)Nc2ccc(Cl)cn2)n1")
"19.4 µM"
>>> measured_value("O=C(c1cccc(-c2ccccc2)c1)N1CC[C@@H](N2CCC(O)CC2)[C@H](O)C1")
"> 300 µM"
>>> measured_value("O=C(c1ccc(Cl)cc1)c1coc2ccc(O)cc12")
"13.4 µM"

Documented EC50 of Fc1ccccc1CNc1nc(-c2cccnc2)nc2ccccc12 : > 300 µM

Documented EC50 of COc1cccc(C2C(C(=O)OCc3ccccc3)C(C)=Nc3ncnn32)c1OC (stereo not drawn) : 3.82 µM

Documented EC50 of COc1ccccc1-c1coc2c(CN(C)C)c(O)ccc2c1=O : > 300 µM

Documented EC50 of O=NCc1cn(-c2ccccc2)nc1-c1cccnc1 : 6.45 µM

Documented EC50 of Nc1nc(Nc2ccc(Cl)cc2)nc(NCCO)c1[N+](=O)[O-] : 1.7 µM

Documented EC50 of O=c1cc(-c2ccccc2Cl)oc2c(NS(=O)(=O)c3ccccc3C(F)(F)F)ccc(O)c12 : > 300 µM

Documented EC50 of COc1ccc(C(=O)NCC(=O)NN=Cc2ccc(C)o2)cc1OC : > 300 µM
